Overview of recorded half-life at 1 µM for various compounds
# test_summary: Liver microsomal stability study, mouse
# Type: in vitro ADME
# condition_summary: Mouse liver microsomes

Some compounds with known half-life at 1 µM results, for comparison:
* O=C(C1CN(Cc2c[nH]c(=O)c(C(F)(F)F)c2)C1)N1CCN(c2ncc(C(F)(F)F)cn2)CC1 | > 1 h
* CC(=O)Nc1cc(C(F)(F)F)cnc1N1CCN(C(=O)[C@H]2C[C@H](NC(C)(C)c3cc(C(F)(F)F)c(=O)[nH]n3)C2)CC1 | > 1 h

**Q:** // returns reported half-life at 1 µM for input `O=c1[nH]cc(CN[C@H]2C[C@H](C(=O)N3CCN(c4ncc(C(F)(F)F)cn4)CC3)C2)cc1C(F)(F)F`
**A:** > 1 h
